- Test system: Plasmodium falciparum
- protocol_summary: Screen against P. falciparum Asexual Blood Stage (ABS), at 5uM
- Type: functional, Dd2
- condition_info: tested at 5 uM
Out of some 65,000 compounds screened, about 2,100 (3.2%) showed an effect of 50% or more. The median lay at about -52%. The sample as a whole holds a higher share of strong results than the screen did.
# maps each entry to its INHIBITION
endpoint_name: INHIBITION (%)

• N#CCCN(C(=O)CN1CCCC1c1cccs1)c1ccccc1F (centres undefined) = 40
• O[C@H]1CC[C@@H](Cc2cc(-c3ccccc3)on2)O[C@@H]1CNCC1CC1 = 39.2
• CN(C)CC1CSCCCN1S(=O)(=O)Cc1cccc(F)c1 (centres undefined) = 58.6
• COC(=O)c1cccc(S(=O)(=O)NCC(c2ccco2)N2CCCC2)c1 (centres undefined) = 19.7
• Cc1ccc(Br)cc1NC(=O)NC1CCC2(C1)OCCO2 (centres undefined) = -96.9
• CCN1CC2(CNCCN(C(=O)Nc3ccccc3)C2)CC1=O (centres undefined) = 53.7
• COc1ccccc1CN1CCCCC1c1n[nH]cc1-c1cc(C)no1 (centres undefined) = 66.4
• CC(=O)N1CCN(C(=O)Nc2ccccc2)CC2(CC(=O)N(C)C2)C1 (centres undefined) = 13.6
• CN(C(=O)CN1CCCC1Cc1ccccc1)c1ccccc1 (centres undefined) = 22.7
• CN(C)CC(=O)N1CC2(CCN(S(=O)(=O)c3ccccc3)C2)C1 = -21
• CS(=O)(=O)C1CCN(S(=O)(=O)Cc2cccc(F)c2)CC1 = -89.8
• CCn1c(C)cc(C(=O)N2CCC(NC(=O)c3ccc(C)o3)CC2)c1C = -31.2
• Cc1cc2c(c(-c3cncc(C(=O)N4CCCC4)n3)c1)OC(CN)C2 (centres undefined) = 4.12
• Cn1cc(C(=O)NCCc2ccc(OC3CCCC3)cc2)ccc1=O = -53.4
• COc1ccccc1-c1ncc(CN2CCCC(CCC(N)=O)C2)s1 (centres undefined) = -43.7
• Nc1ncccc1C(=O)NCc1cccc(Br)c1 = -72
• Cc1cccc(CN2CCCCC2c2n[nH]cc2-c2cc(C)no2)c1 (centres undefined) = 52
• CC(NC(=O)Nc1ccc(-c2csnn2)cc1)C(=O)NC(C)(C)C (centres undefined) = -94.8
• CN(C)CC(=O)N1CC2(CCN(C(=O)Nc3ccccc3)C2)C1 = 50
